Test Conditions: lymphatic transport of total MPA derivatives, male SD rats, intraduodenal infusion
Some molecules, each annotated with its measured Fold increase (compared with MPA dosed group).
Numbers only; they are read as fold.

In the examples that follow, each entry is paired with its recorded Fold increase (compared with MPA dosed group).
>  <Molecule>
CCCCCCCCCCCCCCCC(=O)OCC(COC(=O)CCCCCCCCCCCCCCC)OC(=O)CC(C)CCOC(=O)CCC(C)=CCc1c(O)c2c(c(C)c1OC)COC2=O (mixture of isomers)

>  <Numeric Readout>
72.3

$$$$
>  <Molecule>
CCCCCCCCCCCCCCCC(=O)OCC(COC(=O)CCCCCCCCCCCCCCC)OC(=O)C(C)CCCOC(=O)CCC(C)=CCc1c(O)c2c(c(C)c1OC)COC2=O (mixture of isomers)

>  <Numeric Readout>
54.6

$$$$
>  <Molecule>
CCCCCCCCCCCCCCCC(=O)OCC(COC(=O)CCCCCCCCCCCCCCC)OC(=O)CCCCCCCOC(=O)CC/C(C)=C/Cc1c(O)c2c(c(C)c1OC)COC2=O

>  <Numeric Readout>
62.8

$$$$
>  <Molecule>
CCCCCCCCCCCCCCCC(=O)OCC(COC(=O)CCCCCCCCCCCCCCC)OC(=O)CC(C)CCCCCCCCCCCCOC(=O)CCC(C)=CCc1c(O)c2c(c(C)c1OC)COC2=O (mixture of isomers)

>  <Numeric Readout>
167.0

$$$$

Briefly, Fold increase (compared with MPA dosed group) measured for CCCCCCCCCCCCCCCC(=O)OCC(COC(=O)CCCCCCCCCCCCCCC)OC(=O)CCCCSC(=O)CC/C(C)=C/Cc1c(O)c2c(c(C)c1OC)COC2=O : 61.1

Reference source for all entries: patent US11311512B2
